Entry source: patent US20110172217A1

Could you please report measured inhibition at 50 µM for the items listed next?
Tested System: PI-3 kinase γ (Homo sapiens, UniProt P48736)
Sequence (P48736 whole entry): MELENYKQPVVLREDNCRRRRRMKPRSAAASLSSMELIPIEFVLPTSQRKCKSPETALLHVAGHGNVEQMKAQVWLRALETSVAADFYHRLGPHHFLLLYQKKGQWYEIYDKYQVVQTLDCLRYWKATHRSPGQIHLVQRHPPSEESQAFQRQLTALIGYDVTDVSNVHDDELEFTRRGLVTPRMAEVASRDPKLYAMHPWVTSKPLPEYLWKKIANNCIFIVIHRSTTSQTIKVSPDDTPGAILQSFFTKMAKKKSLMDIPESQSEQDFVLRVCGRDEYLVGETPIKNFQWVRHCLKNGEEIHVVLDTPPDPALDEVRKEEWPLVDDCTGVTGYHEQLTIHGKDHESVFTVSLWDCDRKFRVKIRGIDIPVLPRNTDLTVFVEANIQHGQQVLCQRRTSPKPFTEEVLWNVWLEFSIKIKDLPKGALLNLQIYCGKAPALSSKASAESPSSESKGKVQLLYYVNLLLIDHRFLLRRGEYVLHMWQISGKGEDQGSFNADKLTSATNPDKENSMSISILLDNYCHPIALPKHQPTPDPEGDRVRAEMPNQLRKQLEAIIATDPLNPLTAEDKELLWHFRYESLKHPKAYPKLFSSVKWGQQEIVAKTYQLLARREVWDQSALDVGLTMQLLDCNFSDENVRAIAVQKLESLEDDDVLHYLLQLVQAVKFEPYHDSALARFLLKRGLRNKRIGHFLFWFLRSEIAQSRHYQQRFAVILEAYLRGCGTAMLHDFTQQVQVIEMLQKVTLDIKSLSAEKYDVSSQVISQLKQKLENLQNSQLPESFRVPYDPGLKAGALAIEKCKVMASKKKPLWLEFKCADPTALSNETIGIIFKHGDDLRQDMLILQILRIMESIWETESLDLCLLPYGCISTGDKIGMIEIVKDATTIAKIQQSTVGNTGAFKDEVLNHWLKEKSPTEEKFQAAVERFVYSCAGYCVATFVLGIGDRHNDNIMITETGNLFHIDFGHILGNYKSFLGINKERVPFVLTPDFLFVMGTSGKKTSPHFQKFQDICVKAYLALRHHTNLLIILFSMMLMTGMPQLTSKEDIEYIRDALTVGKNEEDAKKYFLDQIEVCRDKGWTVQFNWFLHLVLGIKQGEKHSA
Assay Remarks: PI3Kγ inhibitory activity, PI3-kinase HTRF assay (inhibition ratio)
Format: biochemical
Study Conditions: 0.5 h, compound at 50 μmol/L
Numbers only, in %.

molecule="O=C(Nc1ccccc1)N1CCOc2cc(Nc3ccc(S(=O)(=O)N4CCOCC4)cc3)cnc21 [Compound I-323]" measurement_kind="inhibition at 50 µM" recorded_number=89
molecule="O=C(Nc1ccccc1)N1CCOc2cc(Nc3ccccc3)cnc21 [Compound I-132]" measurement_kind="inhibition at 50 µM" recorded_number=83

Query molecule follows.
Record request: inhibition at 50 µM value, item O=C(Nc1ccccc1)N1CCOc2ccc(-c3cccnc3)nc21 [Compound I-102]
94
